Read-out: TIMP metallopeptidase inhibitor 2 (TIMP2), TIMP2 (gene 7077)
Experiment: BSK_KF3CT_TIMP2: BioMAP Diversity Plus: KF3CT Assay for TIMP metallopeptidase inhibitor 2 (TIMP2) Biomarker Activity (AID 2283071)
Conditions: primary human keratinocytes with fibroblasts; actives raise or lower the signal
Activity calls are given as the source filed them. The calls were made as follows: active = hit-call score of the fitted dose curve at least 0.9, where 1 is the maximum; inactive = score below 0.9.
Give your call using only these classes: true (1) (active), false (0) (inactive)

How did this test come out for O=c1[nH]c(Cl)c(Cl)cc1Cl ?
false (0)

How did this test come out for CCc1cc(C)cc(CC)c1-c1c(OC(=O)C(C)(C)C)n2n(c1=O)CCOCC2 ?
true (1)

How did this test come out for c1ccc(Nc2ccc3ccccc3c2)cc1 ?
true (1)

====

Molecular target: human Neonicotinoid receptor (NNR), CHRNA2 (gene 1135) (UniProt Q15822)
Sequence (Q15822 whole entry, looked up): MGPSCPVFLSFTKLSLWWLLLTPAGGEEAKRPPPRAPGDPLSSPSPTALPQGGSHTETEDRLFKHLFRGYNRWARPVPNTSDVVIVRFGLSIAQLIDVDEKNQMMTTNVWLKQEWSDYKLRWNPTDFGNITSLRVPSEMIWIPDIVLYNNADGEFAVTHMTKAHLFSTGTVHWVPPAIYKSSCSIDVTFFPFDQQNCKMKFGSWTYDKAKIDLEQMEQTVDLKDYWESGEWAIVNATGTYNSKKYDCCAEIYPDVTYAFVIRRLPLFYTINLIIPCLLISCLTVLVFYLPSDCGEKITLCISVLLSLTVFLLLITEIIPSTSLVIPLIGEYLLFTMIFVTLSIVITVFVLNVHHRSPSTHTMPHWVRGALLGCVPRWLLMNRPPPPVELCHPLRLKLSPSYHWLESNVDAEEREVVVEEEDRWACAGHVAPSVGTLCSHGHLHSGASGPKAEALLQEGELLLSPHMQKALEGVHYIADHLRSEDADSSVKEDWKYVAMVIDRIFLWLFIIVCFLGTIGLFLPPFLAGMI
Experiment: NVS_LGIC_hNNR_NBungSens: NovaScreen (NVS) Ligand-Gated Ion Channel Assay for human Neonicotinoid receptor (NNR) (AID 2283313)
Inconclusive results are not listed. Activity calls are given as the source filed them. The calls were made as follows: active = hit-call score of the fitted dose curve at least 0.9, where 1 is the maximum; inconclusive = response in the unintended direction; inactive = score below 0.9.
Give your call using only these classes: active, inactive

How did this test come out for Clc1cc(Cl)c2c(c1)N=C1CCCCCN1C2 ?
active

How did this test come out for CNS(=O)(=O)c1cc(C(=O)N2CCC(CCN3C4CCC3CC(n3c(C)nc5ccccc53)C4)(c3cccc(F)c3)CC2)c(Cl)cc1F (centres undefined) ?
inactive

How did this test come out for NC(=O)N(O)[C@@H]1C=C[C@H](Oc2cccc(Oc3ccc(F)cc3)c2)C1 ?
active

How did this test come out for S=C([S-])NCCNC(=S)[S-].[Mn+2] ?
inactive

How did this test come out for CCN(CC)CCNc1ccc(CNC=O)c2sc3ccc(OC)cc3c(=O)c12 ?
inactive

How did this test come out for CCCOC(=O)NCCCN(C)C ?
active

How did this test come out for COc1ccc(OC(F)(F)F)cc1CN[C@H]1CCCN[C@H]1c1ccccc1 ?
active

How did this test come out for CN(C)CCCN1c2ccccc2Sc2ccc(Cl)cc21 ?
active

How did this test come out for Cn1cnc2c1c(=O)[nH]c(=O)n2C ?
active

How did this test come out for O=C(c1ccc(OCCN2CCCCC2)cc1)c1c(-c2ccc(O)cc2)sc2cc(O)ccc12 ?
active

How did this test come out for S=C(S)NCCNC(=S)S.[Mn+2].[S-]C([S-])=NCCN=C([S-])[S-].[Zn+2] ?
inactive

How did this test come out for NCCOCCOCCN ?
inactive

How did this test come out for CCCCCCCC(=O)O ?
active

How did this test come out for CN1CCC[C@H]1c1cccnc1 ?
active

====

Target: human Peripheral-type Benzodiazepine Receptor (PBR), TSPO (gene 706)
Experiment: NVS_MP_hPBR: NovaScreen (NVS) Membrane Protein Assay for human Peripheral-type Benzodiazepine Receptor (PBR) (AID 2283331);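 also: hits reduce radioligand binding relative to DMSO baseline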
Inconclusive results are not listed. Activity calls are given as the source filed them. How the source made its calls: active means hit-call score of the fitted dose curve at least 0.9, where 1 is the maximum; inconclusive means response in the unintended direction; inactive means score below 0.9.
Give your call using only these classes: active, inactive

How did this test come out for CCCCCCCCCCCCCCCC[N+](C)(C)C ?
active

How did this test come out for CC(C)(C)C(O)C(Oc1ccc(-c2ccccc2)cc1)n1cncn1 (configuration not stated) ?
inactive

How did this test come out for CC(C)CCCCCCCOP(=O)(Oc1ccccc1)Oc1ccccc1 ?
active

How did this test come out for O=C1C(Cl)=C(Cl)C(=O)C(Cl)=C1Cl ?
active

How did this test come out for COC(=O)COc1ccc(Cl)cc1Cl ?
active

How did this test come out for CCc1cccc(C)c1N(C(=O)CCl)[C@@H](C)COC ?
active

How did this test come out for CC(C)COP(=O)(OCC(C)C)OCC(C)C ?
active
